Just for reference, patent US20240299484A1 is where these values come from.

So I've got a bunch of compounds here, and I need their Body Weight (grams) Day −0 values.
- assay-info: Effect on body weight, 28-day oral supplementation with exercise
- Type: in vivo, Swiss Albino mice
- assay-setup: Day −0 (baseline), mice, n = 8
Provide only the numeric value, understood in grams.

Ask: Identify the reported Body Weight (grams) Day −0 for the following entry. NC(=O)NCCC[C@H](N)C(=O)O [L-Citrulline, L-citrulline]
Result: 22.49

Ask: Identify the reported Body Weight (grams) Day −0 for the following entry. Cn1c(=O)[nH]c2ncn(C)c2c1=O [Paraxanthine, 1,7-dimethylxanthine]
Result: 24.35

Ask: Identify the reported Body Weight (grams) Day −0 for the following entry. N=C(N)NCCC[C@H](N)C(=O)O [L-Arginine, L-arginine]
Result: 23

Ask: Identify the reported Body Weight (grams) Day −0 for the following entry. CC(C)C[C@H](NC(=O)[C@@H](N)CC(C)C)C(=O)O [Dileucine, L-Leucyl-L-leucine]
Result: 24.09

* * *

- assay-info: Forelimb grip strength test
- Format: in vivo, Swiss Albino mice
- assay-setup: Day −28 minus Day −0
- Method: Eight 8-week-old male Swiss Albino mice per experimental group were housed in an animal room at a constant temperature (22±3° C.) and humidity (30%-70%) under a 12:12 h light-dark cycle with standard laboratory diet (Purina 5L79, Rat and Mouse 18% protein; PMI Nutrition International, Brentwood, MO, USA). […] The forelimb grip strength was measured on day 0 and day 28 by using a stainless-steel grill to assess muscle strength (Orchid Scientific & Innovative India Pvt Ltd, India). […]
So I've got a bunch of compounds here, and I need their Increase strength over Day −0 values.
Provide only the numeric value, understood in gf.

Ask: Identify the reported Increase strength over Day −0 for the following entry. NC(=O)NCCC[C@H](N)C(=O)O [L-Citrulline, L-citrulline]
Result: 40.87

Ask: Identify the reported Increase strength over Day −0 for the following entry. CC(C)C[C@H](NC(=O)[C@@H](N)CC(C)C)C(=O)O [Dileucine, L-Leucyl-L-leucine]
Result: 49.75

Ask: Identify the reported Increase strength over Day −0 for the following entry. N=C(N)NCCC[C@H](N)C(=O)O [L-Arginine, L-arginine]
Result: 39.38

Ask: Identify the reported Increase strength over Day −0 for the following entry. Cn1c(=O)[nH]c2ncn(C)c2c1=O [Paraxanthine, 1,7-dimethylxanthine]
Result: 50.5

* * *

- Tested on: IL-2
- assay-info: Inflammatory markers: IL-2
- Assay type: in vivo, Swiss Albino mice
- assay-setup: vs Exercise Control, 28 days
So I've got a bunch of compounds here, and I need their IL-2 Change over control [%] values.
Provide only the numeric value, understood in %.

Ask: System IL-2. Read-out IL-2 Change over control [%]. Item Cn1c(=O)[nH]c2ncn(C)c2c1=O . Report value.
Result: 23

Ask: System IL-2. Read-out IL-2 Change over control [%]. Item CC(C)C[C@H](NC(=O)[C@@H](N)CC(C)C)C(=O)O . Report value.
Result: 24

Ask: System IL-2. Read-out IL-2 Change over control [%]. Item NC(=O)NCCC[C@H](N)C(=O)O . Report value.
Result: 25

Ask: System IL-2. Read-out IL-2 Change over control [%]. Item N=C(N)NCCC[C@H](N)C(=O)O . Report value.
Result: 23

* * *

- Tested on: IL-10
- assay-info: Inflammatory markers: IL-10
- Type: in vivo, Swiss Albino mice
- assay-setup: after 28 days of supplementation and exercise, mice, n = 8
Marks after values point to notes of the source that are not given here.
So I've got a bunch of compounds here, and I need their IL-10 (pg/ml) values.

Ask: System IL-10. Read-out IL-10 (pg/ml). Item N=C(N)NCCC[C@H](N)C(=O)O . Report value.
Result: 565.47** pg/ml

Ask: System IL-10. Read-out IL-10 (pg/ml). Item Cn1c(=O)[nH]c2ncn(C)c2c1=O . Report value.
Result: 571.71*** pg/ml

Ask: System IL-10. Read-out IL-10 (pg/ml). Item CC(C)C[C@H](NC(=O)[C@@H](N)CC(C)C)C(=O)O . Report value.
Result: 569.36*** pg/ml

Ask: System IL-10. Read-out IL-10 (pg/ml). Item NC(=O)NCCC[C@H](N)C(=O)O . Report value.
Result: 559.63** pg/ml

* * *

- assay-info: Treadmill exercise / endurance test
- Format: in vivo, Swiss Albino mice
- assay-setup: Day −28, until exhaustion, oral once a day for 28 days
Marks after values point to notes of the source that are not given here.
So I've got a bunch of molecules here, and I need their Distance travelled (m) by mice during treadmill exercise Day −28 values.

Ask: Identify the reported Distance travelled (m) by mice during treadmill exercise Day −28 for the following entry. N=C(N)NCCC[C@H](N)C(=O)O
Result: 314.25*** m

Ask: Identify the reported Distance travelled (m) by mice during treadmill exercise Day −28 for the following entry. CC(C)C[C@H](NC(=O)[C@@H](N)CC(C)C)C(=O)O
Result: 328.5*** m

Ask: Identify the reported Distance travelled (m) by mice during treadmill exercise Day −28 for the following entry. Cn1c(=O)[nH]c2ncn(C)c2c1=O
Result: 325.75*** m

Ask: Identify the reported Distance travelled (m) by mice during treadmill exercise Day −28 for the following entry. NC(=O)NCCC[C@H](N)C(=O)O
Result: 312*** m

* * *

- Test system: nitric oxide
- assay-info: NO signaling: nitric oxide level
- Assay type: in vivo, Swiss Albino mice
- assay-setup: after 28 days of supplementation and exercise, mice, n = 8
Marks after values point to notes of the source that are not given here.
endpoint-label: Nitric oxide (μmol/L) (mg/L)

Ask: Identify the reported Nitric oxide (μmol/L) (mg/L) for the following entry. N=C(N)NCCC[C@H](N)C(=O)O [L-Arginine, L-arginine]
Result: 77.98* μmol/L

Ask: Identify the reported Nitric oxide (μmol/L) (mg/L) for the following entry. NC(=O)NCCC[C@H](N)C(=O)O [L-Citrulline, L-citrulline]
Result: 77.61 µmol/L

Ask: Identify the reported Nitric oxide (μmol/L) (mg/L) for the following entry. Cn1c(=O)[nH]c2ncn(C)c2c1=O [Paraxanthine, 1,7-dimethylxanthine]
Result: 84.29*** μmol/L

Ask: Identify the reported Nitric oxide (μmol/L) (mg/L) for the following entry. CC(C)C[C@H](NC(=O)[C@@H](N)CC(C)C)C(=O)O [Dileucine, L-Leucyl-L-leucine]
Result: 84.83*** μmol/L

* * *

- Test system: total cholesterol (TC)
- assay-info: Blood lipids: total cholesterol
- Format: in vivo, Swiss Albino mice
- assay-setup: vs Exercise Control, 28 days
endpoint-label: TC Change over control [%] (%)
Provide only the numeric value, understood in %.

Ask: Identify the reported TC Change over control [%] for the following entry. Cn1c(=O)[nH]c2ncn(C)c2c1=O
Result: −8

Ask: Identify the reported TC Change over control [%] for the following entry. N=C(N)NCCC[C@H](N)C(=O)O
Result: −5

Ask: Identify the reported TC Change over control [%] for the following entry. CC(C)C[C@H](NC(=O)[C@@H](N)CC(C)C)C(=O)O
Result: −6

Ask: Identify the reported TC Change over control [%] for the following entry. NC(=O)NCCC[C@H](N)C(=O)O
Result: −6

* * *

- System: C-reactive protein (CRP)
- assay-info: Inflammatory markers: CRP
- Assay type: in vivo, Swiss Albino mice
- assay-setup: after 28 days of supplementation and exercise, mice, n = 8
Marks after values point to notes of the source that are not given here.
endpoint-label: CRP (mg/L)

Ask: Identify the reported CRP (mg/L) for the following entry. CC(C)C[C@H](NC(=O)[C@@H](N)CC(C)C)C(=O)O
Result: 0.63*** mg/L

Ask: Identify the reported CRP (mg/L) for the following entry. NC(=O)NCCC[C@H](N)C(=O)O
Result: 0.69*** mg/L

Ask: Identify the reported CRP (mg/L) for the following entry. N=C(N)NCCC[C@H](N)C(=O)O
Result: 0.69*** mg/L

Ask: Identify the reported CRP (mg/L) for the following entry. Cn1c(=O)[nH]c2ncn(C)c2c1=O
Result: 0.64** mg/L

* * *

- System: low-density lipids (LDL)
- assay-info: Blood lipids: LDL
- Type: in vivo, Swiss Albino mice
- assay-setup: vs Exercise Control, 28 days
endpoint-label: LDL Change over control [%] (%)
Provide only the numeric value, understood in %.

Ask: System low-density lipids (LDL). Read-out LDL Change over control [%]. Item CC(C)C[C@H](NC(=O)[C@@H](N)CC(C)C)C(=O)O . Report value.
Result: −3

Ask: System low-density lipids (LDL). Read-out LDL Change over control [%]. Item Cn1c(=O)[nH]c2ncn(C)c2c1=O . Report value.
Result: −1

Ask: System low-density lipids (LDL). Read-out LDL Change over control [%]. Item N=C(N)NCCC[C@H](N)C(=O)O . Report value.
Result: 3

Ask: System low-density lipids (LDL). Read-out LDL Change over control [%]. Item NC(=O)NCCC[C@H](N)C(=O)O . Report value.
Result: 1
